Tested on: THRa:RXRa (NR concentration 90 nM, RXRa partner concentration 90 nM)
Experiment: PBM binding z-score (relative to random genomic background probes); higher = stronger binding; sequences stand for … in GC…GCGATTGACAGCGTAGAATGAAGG
Quick rule for you: PBM binding z-score at 3 or higher means Yes, lower means No.

- residue sequence: "ATCTCTAGGTAACCAAGTTTAGTGAATGCCGAAC"
  classification: "No"
- residue sequence: "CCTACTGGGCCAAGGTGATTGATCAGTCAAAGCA"
  classification: "No"
- residue sequence: "CGTCCAAGGTCAGCATGTCAGTGAAAGCGACGTG"
  classification: "Yes"
- residue sequence: "ACTCGGCGGACAAAGGTCAGAGCTACGCCAGTGA"
  classification: "No"
- residue sequence: "GATACAGGGTCAGCTAGAGGCCAGATTATGGAAA"
  classification: "Yes"
- residue sequence: "TCGCCTAGGTCATTGGGCCAGTATAGTACGCATC"
  classification: "No"
- residue sequence: "CCTAGCAGGCCAATCTTGGTCACTCAAGGCTTGA"
  classification: "No"
- residue sequence: "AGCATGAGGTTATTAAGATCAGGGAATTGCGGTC"
  classification: "No"
- residue sequence: "AGAATGAGGTTAAGATCAGGGCAACAGAATACAT"
  classification: "Yes"
- residue sequence: "ATCGAAAGGTCGTAAGGTGAGTATACAGAAAGGC"
  classification: "Yes"
- residue sequence: "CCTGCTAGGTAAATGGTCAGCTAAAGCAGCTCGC"
  classification: "No"
- residue sequence: "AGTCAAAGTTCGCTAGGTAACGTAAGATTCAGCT"
  classification: "No"
- residue sequence: "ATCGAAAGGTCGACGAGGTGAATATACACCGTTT"
  classification: "Yes"
- residue sequence: "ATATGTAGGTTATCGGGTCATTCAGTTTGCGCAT"
  classification: "Yes"
- residue sequence: "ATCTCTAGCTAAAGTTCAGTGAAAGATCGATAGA"
  classification: "No"
- residue sequence: "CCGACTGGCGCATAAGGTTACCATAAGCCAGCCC"
  classification: "No"
- residue sequence: "CCGACTGGGGCAGACAGGTTACCATACCATCCGG"
  classification: "No"
- residue sequence: "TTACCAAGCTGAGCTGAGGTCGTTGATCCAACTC"
  classification: "No"
- residue sequence: "TTACCAAGGTGAGCTGAGGTCGTTGTTCCAACTC"
  classification: "Yes"
- residue sequence: "CGTCCATGGTCAAAGGTCAGTGAAGAGATGACGG"
  classification: "No"
- residue sequence: "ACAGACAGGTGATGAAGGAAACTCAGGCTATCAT"
  classification: "No"
- residue sequence: "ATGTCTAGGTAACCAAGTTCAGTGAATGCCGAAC"
  classification: "No"
- residue sequence: "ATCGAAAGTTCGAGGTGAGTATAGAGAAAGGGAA"
  classification: "No"
- residue sequence: "GCTATTAGTTAAAAGGGCAACCGAATGATTCTCG"
  classification: "No"
- residue sequence: "CAAACTAGGTCTCCGGAAGGTCAAAGTCCGCATG"
  classification: "No"
